I'd appreciate it if you could supply IC50 values for the items below.
Tested on: M. tuberculosis H37Ra-lux
Experiment: microbe, parasite or virus in culture
Assay type: cell-based, Mycobacterium tuberculosis
Settings: Mycobacterium tuberculosis, H37RA, 168 h, read-out: M. tuberculosis H37Ra-lux IC50

// IC50 value for O=C(Nc1ccc(N2CCN(C(=O)c3cnccn3)CC2)nc1)c1c(Cl)cccc1Br : 1.82 µM

// IC50 value for O=C(Nc1ccc(N2CCCN(C(=O)c3cnccn3)CC2)nc1)c1ccc(Cl)cc1Cl : > 64 µM

// IC50 value for O=C(Nc1ccc(N2CCCN(C(=O)c3cnccn3)CC2)nc1)c1cccc(Br)c1 : > 64 µM

// IC50 value for O=C(Nc1ccc(N2CCCN(C(=O)c3cnccn3)CC2)nc1)c1ccncc1 : > 64 µM

// IC50 value for O=C(Nc1ccc(N2CCN(C(=O)c3cnccn3)CC2)nc1)c1cccc(Br)c1 : > 64 µM
